- experimental system: EBP (Homo sapiens, UniProt Q15125)
- Construct: HEK293T cells were utilized as the source of EBP enzyme; endogenous in cells
- Sequence (Q15125 whole entry): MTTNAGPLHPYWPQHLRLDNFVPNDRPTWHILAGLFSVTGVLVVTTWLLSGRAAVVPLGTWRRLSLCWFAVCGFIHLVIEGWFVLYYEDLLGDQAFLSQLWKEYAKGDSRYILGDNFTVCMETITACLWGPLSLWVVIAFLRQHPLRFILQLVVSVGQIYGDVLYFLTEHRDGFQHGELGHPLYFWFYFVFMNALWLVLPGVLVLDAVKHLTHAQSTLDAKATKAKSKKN
- assay summary: EBP Functional Assay (EBP immunoaffinity LC-MS assay)
- condition summary: HEK293T cells as source of EBP enzyme; 30 min with inhibitor, then zymosterol-d5, 37° C. for 4 h; percent conversion by LC-APCI MRM MS
readout name: IC50

Please review the entries below; each comes with its answer.
Prompt: What measured IC50 goes with CC1(O)CCN(C2CC3CCC(C2)N3S(=O)(=O)c2ccc(OC(F)F)cc2)C1 (stereo not shown) ?
Completion: 50 to 150 nM

Prompt: What measured IC50 goes with O=S(=O)(c1ccc(OC(F)F)cc1)N1[C@@H]2CC[C@H]1C[C@](O)(CN1CCOCC1)C2 ?
Completion: < 50 nM

Prompt: What measured IC50 goes with COc1cc(F)c(S(=O)(=O)N2[C@@H]3CC[C@H]2C[C@H](N2CCC(C)CC2)C3)c(F)c1 ?
Completion: 50 to 150 nM

Prompt: What measured IC50 goes with CC1(CNC2C[C@H]3CC[C@@H](C2)N3S(=O)(=O)c2ccc(OC(F)F)cc2)COC1 (mixture of isomers) ?
Completion: < 50 nM

Please report IC50 for every entry that follows.
1. Cc1nc(C(F)(F)F)ccc1S(=O)(=O)N1[C@@H]2CC[C@H]1C[C@H](NCC1CCOCC1)C2 (single isomer, unassigned)
2. Cc1cc(S(=O)(=O)N2[C@@H]3CC[C@H]2C[C@@H](CN2CCOCC2)C3)n(C)n1
3. O=S(=O)(c1ccc(OC(F)F)cc1)N1[C@@H]2CC[C@H]1C[C@H](NC[C@H]1C[C@@H](O)C1)C2 (single isomer, unassigned)

Completion:
< 50 nM
< 50 nM
150 to 2000 nM

====

I'd be grateful if you could share measured IC50 for these entries.
- experimental system: EBP (Homo sapiens, UniProt Q15125)
- Construct: HEK293T cells were utilized as the source of EBP enzyme; endogenous in cells
- assay summary: EBP Functional Assay (EBP immunoaffinity LC-MS assay)
- condition summary: HEK293T cells as source of EBP enzyme; 30 min with inhibitor, then zymosterol-d5, 37° C. for 4 h; percent conversion by LC-APCI MRM MS

Prompt: API: value(readout= IC50, system= EBP (Homo sapiens, UniProt Q15125), query= O=S(=O)(c1ccc(OC(F)F)cc1)N1[C@@H]2CC[C@H]1C[C@@](O)(CN1CCOCC1)C2 )
Completion: 0.05 to 0.15 µM

Prompt: API: value(readout= IC50, system= EBP (Homo sapiens, UniProt Q15125), query= O=S(=O)(c1ccc(OC(F)F)cc1)N1C2CCC1CC(NCC1CCOCC1)C2 (stereo not shown) )
Completion: < 0.05 µM

Prompt: API: value(readout= IC50, system= EBP (Homo sapiens, UniProt Q15125), query= CC1CCN([C@@H]2C[C@H]3CC[C@@H](C2)N3S(=O)(=O)c2c3c(nn2C)CCOC3)CC1 )
Completion: < 0.05 µM

Prompt: API: value(readout= IC50, system= EBP (Homo sapiens, UniProt Q15125), query= O=S(=O)(c1ccc(OC(F)F)cc1)N1C2CCC1CC(NCC1CC(O)C1)C2 (single isomer, unassigned) [Example 61] )
Completion: 0.05 to 0.15 µM

Please report IC50 for every entry that follows.
1. O=S(=O)(c1ccc(OC(F)F)cc1)N1C2CCC1CC(NC1CCC1O)C2 (stereo not shown)
2. O=S(=O)(c1ccc(OC(F)F)cc1)N1[C@@H]2CC[C@H]1C[C@H](CN1CCOCC1)C2
3. Cc1noc(C)c1S(=O)(=O)N1[C@@H]2CC[C@H]1C[C@H](CN1CCOCC1)C2
4. O=S(=O)(c1c(F)cc(OC(F)F)cc1F)N1[C@@H]2CC[C@H]1C[C@H](CN1CCOCC1)C2
5. CC(C)(O)CN[C@H]1C[C@H]2CC[C@@H](C1)N2S(=O)(=O)c1ccc(OC(F)F)cc1

Completion:
1: < 0.05 µM; 2: < 0.05 µM; 3: < 0.05 µM; 4: < 0.05 µM; 5: 0.05 to 0.15 µM

Prompt: API: value(readout= IC50, system= EBP (Homo sapiens, UniProt Q15125), query= Cc1ccnc(-n2cc(S(=O)(=O)N3[C@@H]4CC[C@H]3C[C@@H](N3CCC(C)CC3)C4)cn2)c1 )
Completion: 0.15 to 2 µM

====

- experimental system: EBP (Homo sapiens, UniProt Q15125)
- Construct: HEK293T cells were utilized as the source of EBP enzyme; endogenous in cells
- assay summary: EBP Functional Assay (EBP immunoaffinity LC-MS assay)
- condition summary: HEK293T cells as source of EBP enzyme; 30 min with inhibitor, then zymosterol-d5, 37° C. for 4 h; percent conversion by LC-APCI MRM MS
- Method: The EBP immunoaffinity (IA) LC-MS assay measures the potency of small molecule inhibitors of EBP by quantifying their concentration-dependent changes in the enzyme's substrate and product using liquid chromatography atmospheric pressure chemical ionization multiple reaction monitoring mass spectrometry (LC-APCI MRM MS). HEK293T cells were utilized as the source of EBP enzyme. The enzyme was incubated with the small molecule inhibitors at variable concentrations for 30 min. […]
pIC50: −log10 of the molar value.
readout name: pIC50

Prompt: What measured pIC50 goes with Cc1nc(C(F)(F)F)ccc1S(=O)(=O)N1[C@@H]2CC[C@H]1C[C@@H](NCC1CCOCC1)C2 (single isomer, unassigned) ?
Completion: > 7.30

Prompt: What measured pIC50 goes with Cc1nc(C(F)(F)F)ccc1S(=O)(=O)N1[C@@H]2CC[C@H]1C[C@@H](N1CC3(COC3)C1)C2 (single isomer, unassigned) ?
Completion: > 7.30

Now for a further compound.
Prompt: What measured pIC50 goes with COCCC(C)NC1CC2CCC(C1)N2S(=O)(=O)c1ccc(OC(F)F)cc1 (stereo not drawn) ?
Completion: > 7.30
